Let's look at some binders and their measured Kd.
assaySystem: T1, human VIP (human)
T1 construct: also called Vasoactive Intestinal Peptide
T1 peptide: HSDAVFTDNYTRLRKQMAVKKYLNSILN
assayOverview: SPR, Ab immobilised
Entry rule: numbers only, all in nM.

See these solved cases before continuing.
>>> observedvalue("anti-PACAP antibody Ab19 (antibody, human IgG1, kappa, N297A, V domains shown, full-length rabbit/human chimeric antibody) VH: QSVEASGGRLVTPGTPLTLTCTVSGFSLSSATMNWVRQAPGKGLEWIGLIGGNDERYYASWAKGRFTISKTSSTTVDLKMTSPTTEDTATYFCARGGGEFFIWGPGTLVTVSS VL: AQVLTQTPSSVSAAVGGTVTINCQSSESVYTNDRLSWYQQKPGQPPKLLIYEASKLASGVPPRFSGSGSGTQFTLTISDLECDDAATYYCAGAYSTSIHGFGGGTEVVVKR")
1000
>>> observedvalue("anti-PACAP antibody Ab15 (antibody, human IgG1, kappa, N297A, V domains shown, full-length rabbit/human chimeric antibody) VH: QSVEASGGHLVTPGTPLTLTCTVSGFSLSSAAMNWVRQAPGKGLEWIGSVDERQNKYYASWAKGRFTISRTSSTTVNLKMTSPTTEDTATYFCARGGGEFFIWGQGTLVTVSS VL: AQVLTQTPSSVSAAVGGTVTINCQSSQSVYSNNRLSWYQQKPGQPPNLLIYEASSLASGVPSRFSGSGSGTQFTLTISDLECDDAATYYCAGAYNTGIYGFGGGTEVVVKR")
820

So what does the record say about Kd for anti-PACAP antibody Ab12.H (antibody, human IgG1, kappa, N297A, V domains shown, humanized form of Ab12, full length) VH: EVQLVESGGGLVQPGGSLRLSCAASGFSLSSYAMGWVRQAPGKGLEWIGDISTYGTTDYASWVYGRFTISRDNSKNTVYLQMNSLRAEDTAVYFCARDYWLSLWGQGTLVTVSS VL: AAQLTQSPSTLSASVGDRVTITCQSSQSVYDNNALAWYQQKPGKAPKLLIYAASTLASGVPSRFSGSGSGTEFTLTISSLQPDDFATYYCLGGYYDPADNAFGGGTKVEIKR ?
51
